Parameter: Kd. Scope: all listed entries.
system-under-test: T1, human activated protein C (human, UniProt P04070 43-197; P04070 212-461)
T1 construct: also called human aPC; human APC
assay-notes: SPR (Biacore), 1:1 binding model
measurement-label: Kd (nM)

binder="Hu1573-9 (antibody, V domains shown, Humanized IgG, human gamma 1 / kappa constant regions by vectors pCP-hCg1 and pCP-hck; also called H1573VH.1D + H1573Vk.2) VH: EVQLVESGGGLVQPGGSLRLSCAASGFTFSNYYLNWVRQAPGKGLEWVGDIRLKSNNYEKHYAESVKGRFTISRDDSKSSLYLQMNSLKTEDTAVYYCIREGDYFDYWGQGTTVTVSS VL: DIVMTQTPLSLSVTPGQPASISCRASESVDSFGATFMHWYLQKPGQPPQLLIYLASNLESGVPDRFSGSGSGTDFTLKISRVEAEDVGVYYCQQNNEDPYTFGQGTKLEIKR" test_result=5.63
binder="1573 mouse (antibody, V domains shown, Parental murine monoclonal antibody; also called mouse aPC monoclonal antibody 1573; HAPC1573) VH: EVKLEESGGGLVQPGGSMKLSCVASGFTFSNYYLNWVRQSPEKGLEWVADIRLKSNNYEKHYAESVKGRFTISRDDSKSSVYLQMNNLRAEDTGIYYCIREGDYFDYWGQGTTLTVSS VL: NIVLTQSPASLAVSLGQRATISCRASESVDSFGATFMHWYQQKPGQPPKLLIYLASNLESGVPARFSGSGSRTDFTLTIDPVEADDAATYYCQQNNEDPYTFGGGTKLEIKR" test_result=5.49
binder="Hu1573-7 (antibody, V domains shown, Humanized IgG, human gamma 1 / kappa constant regions by vectors pCP-hCg1 and pCP-hck; also called H1573VH.1C + H1573Vk.2A) VH: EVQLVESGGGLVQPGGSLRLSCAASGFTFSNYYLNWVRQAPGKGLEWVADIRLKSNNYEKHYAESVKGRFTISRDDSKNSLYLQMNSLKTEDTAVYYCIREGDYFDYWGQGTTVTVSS VL: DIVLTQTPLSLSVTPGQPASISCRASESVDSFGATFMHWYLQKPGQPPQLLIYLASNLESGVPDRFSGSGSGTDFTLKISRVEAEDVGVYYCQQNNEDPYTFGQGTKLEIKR" test_result=6.33
